TARGET DESC: hNAMPT protein (Homo sapiens (Human), UniProt P43490)
Sequence (P43490 whole entry): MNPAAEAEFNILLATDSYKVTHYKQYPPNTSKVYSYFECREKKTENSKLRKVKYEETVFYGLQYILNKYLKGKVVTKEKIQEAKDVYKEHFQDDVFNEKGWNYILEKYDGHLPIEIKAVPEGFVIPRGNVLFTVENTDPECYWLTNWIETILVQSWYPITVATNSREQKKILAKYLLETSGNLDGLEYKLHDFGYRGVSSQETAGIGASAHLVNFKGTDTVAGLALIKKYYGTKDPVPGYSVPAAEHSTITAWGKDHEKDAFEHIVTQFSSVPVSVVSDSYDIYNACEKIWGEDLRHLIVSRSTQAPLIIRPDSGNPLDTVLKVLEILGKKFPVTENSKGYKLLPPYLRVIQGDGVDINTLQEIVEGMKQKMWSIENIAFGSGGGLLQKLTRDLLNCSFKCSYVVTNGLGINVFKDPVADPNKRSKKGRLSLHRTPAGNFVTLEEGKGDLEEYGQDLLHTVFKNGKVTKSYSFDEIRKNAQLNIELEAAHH
ENDPOINT NAME: IC50

INSERT INTO results (compound, observed_measurement) VALUES
  ('COc1cc(-c2nc(-c3ccc(F)cc3)nc3cc(C(=O)NCCCc4nnc[nH]4)ccc23)ccn1 [Compound I-197]', '10 to 50 nM'),
  ('CCOc1cc(-c2ccc(C)nc2OC)nc2cc(C(=O)NCCCc3ccn[nH]3)ccc12 [Compound I-104]', '10 to 50 nM'),
  ('COCCOc1cc(-c2ccc(F)cc2)nc2cc(C(=O)NCCc3c[nH]nc3C)ccc12 [Compound I-126]', '50 to 100 nM'),
  ('CCOc1cc(-c2ccc(F)cc2OC)nc2cc(C(=O)NCCCc3cc[nH]n3)ccc12 [Compound I-128]', '10 to 50 nM'),
  ('CCOc1cc(-c2ccnc(OC)c2)nc2cc(C(=O)NCCCc3[nH]nnc3C)ccc12 [Compound I-71]', '10 to 50 nM'),
  ('CCOc1cc(-c2ccc(OC)nc2)nc2cc(C(=O)NCCc3c[nH]nn3)ccc12 [Compound I-185]', '10 to 50 nM'),
  ('CCN(C)c1nc(-c2ccc(F)cc2)nc2cc(C(=O)NCCCc3ncc[nH]3)ccc12 [Compound I-39]', '10 to 50 nM'),
  ('O=C(NCCCc1ncc[nH]1)c1ccc2c(-c3ccc(F)cc3)nc(-c3ccc(Cl)cc3)nc2c1 [Compound I-57]', '< 10 nM');

* * *

TARGET DESC: hNAMPT protein (Homo sapiens (Human), UniProt P43490)
RUN DESCRIPTION: NAMPT enzyme assay (TR-FRET/HTRF with BodiPY ligand)
Type: binding
CONDITION SUMMARY: NAMPT inhibition at compound concentration 1 μM; read-out: Percent Inhibition
ENDPOINT NAME: inhibition at 1 µM (%)

INSERT INTO measurements (compound, measurement_units, bound_sign, observed_measurement) VALUES
  ('CCOc1cc(-c2ccc(F)cc2)nc2cc(C(=O)NCCCc3cncnc3)ccc12 [Compound I-228]', '%', '=', 94),
  ('CCOc1cc(-c2ccc(Cl)s2)nc2cc(C(=O)NCCc3cnn[nH]3)ccc12 [Compound I-176]', '%', '=', 99),
  ('CCOc1cc(-c2cccnc2OC)nc2cc(C(=O)NCCc3cnn[nH]3)ccc12 [Compound I-190]', '%', '=', 94),
  ('CCOc1cc(-c2ccc(F)cc2)nc2cc(C(=O)NCCCc3nccs3)ccc12 [Compound I-44]', '%', '=', 97),
  ('CCOc1cc(-c2ccc(F)cc2OC)nc2cc(C(=O)NCCc3ncn[nH]3)ccc12 [Compound I-170]', '%', '=', 93),
  ('CCOc1cc(-c2ccc(F)cc2)nc2cc(C(=O)NCCCc3ncc[nH]3)ccc12 [Compound I-15]', '%', '>', 99),
  ('CCCc1cc(-c2ccc(F)cc2)nc2cc(C(=O)NCCCc3ncn[nH]3)ccc12 [Compound I-171]', '%', '=', 97),
  ('CCOc1cc(-c2ccc(F)cc2)nc2cc(C(=O)NCCCc3ccnnc3)ccc12 [Compound I-45]', '%', '=', 100);

* * *

System: PC3 cells
RUN DESCRIPTION: PC3 growth inhibition (Cell-titer glo, 72 hours)
Type: cell-based
CONDITION SUMMARY: Homo sapiens, PC-3, 72 h, read-out: Percent Viability, PC3 cells, compound concentration 1.667 μM, 72 hours
ENDPOINT NAME: viability at 1.667 µM (%)

INSERT INTO measurements (molecule, measurement_units, observed_measurement) VALUES
  ('CCOc1cc(-c2ccc(F)cc2OC)nc2cc(C(=O)NCCc3ncn[nH]3)ccc12 [Compound I-170]', '%', 2),
  ('CCOc1cc(-c2ccnc(C)c2)nc2cc(C(=O)NCCc3nnc[nH]3)ccc12 [Compound I-172]', '%', 6),
  ('CCOc1cc(-c2ccnc(OC)c2F)nc2cc(C(=O)NCCCc3nnc[nH]3)ccc12 [Compound I-90]', '%', 1),
  ('CCOc1cc(-c2ccc(F)cc2OC)nc2cc(C(=O)NCCCc3[nH]nnc3C)ccc12 [Compound I-106]', '%', 2);
